Exercise: state measured self-cleavage for each of the variants provided.
B1: CPEB3 Ribozyme (parent)
chain: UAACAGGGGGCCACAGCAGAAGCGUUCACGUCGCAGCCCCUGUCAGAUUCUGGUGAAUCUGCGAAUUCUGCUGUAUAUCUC

# Variants of: B1
# assay-name: self-cleavage, relative activity (ratio to wild type); higher = more cleavage; in vitro, sequencing
# print the numeric value only

## Input Endpoint output: self-cleavage of C39G A64U . Value?
## Output 0.35

## Input I have this variant here, C17G G53C , and I need its recorded self-cleavage.
## Output 0.45

## Input Could you share which self-cleavage value was measured for G16A U67C ?
## Output 0.11

## Input Request the reported self-cleavage associated with C37U U76A
## Output 0.55

## Input Any idea what its self-cleavage is? The variant is U1C C34U
## Output 0.24

## Input I have this variant here, C29U A77C , and I need its recorded self-cleavage.
## Output 0.5

## Input Item A2U G10U has what recorded self-cleavage?
## Output 0.29

## Input Any idea what self-cleavage was measured for G6A U80C ?
## Output 0.45

## Input For U25C C81G , what is its reported self-cleavage?
## Output 0.22

## Input What does the record list as self-cleavage for C11G U43A ?
## Output 0.67

## Input Using the record for A2U U26A , report its self-cleavage.
## Output 0.87

## Input Consider the variant shown here: G6A C17U What is its recorded self-cleavage?
## Output 0.22

## Input What does the data say about its self-cleavage? Entry: U25C G30U
## Output 0.16

## Input Recorded self-cleavage of C44U A45G , please.
## Output 0.41

## Input Recorded self-cleavage for U41A A64C , please?
## Output 0.15

## Input Endpoint output: self-cleavage of C23U C27U . Value?
## Output 0.31

## Input self-cleavage lookup needed for A15U U26C , thanks.
## Output 0.25

## Input # input variant: C27U A28G ; wanted: its self-cleavage
## Output 0.37

## Input What does the record list as self-cleavage for A35U G61U ?
## Output 0.42

## Input What value of self-cleavage has been recorded for this entry: A77G
## Output 1.06

## Input What self-cleavage value was documented for this variant, U1C A56U ?
## Output 0.52

## Input Fill in the blank: the reported self-cleavage of G9A C38A is ____.
## Output 0.25

## Input What value of self-cleavage has been recorded for this entry: U41A U48A
## Output 0.22

## Input Field request: self-cleavage | item: G52U G61C
## Output 0.22

## Input Reported self-cleavage, variant G42A A64G : ____
## Output 0.21
